Values were extracted from PubChem BioAssay AID1963958.

Each entry below carries its recorded viability, T/C.
- Tested on: MDA-MB-231 multicell spheroids, viability
- procedure text: Anticancer human tumor MDA-MB-231 cell line growth inhibition [PI3K];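 also: spheroids exposed to agents for seven days before reading; percent of vehicle control luminescence with DMSO treated spheroids as 100%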
- settings: second compound 1 µM; first compound 1 µM; stronger effect = lower value
parameter: viability, T/C

{"compound": "C#Cc1c(F)ccc2cc(O)cc(-c3ncc4c(N5CC6CCC(C5)N6)nc(OCC56CCCN5CC(F)C6)nc4c3F)c12 (stereo not drawn) + CC(Nc1ccc2c(c1)OCCn1cc(N3C(=O)OCC3C(F)F)nc1-2)C(N)=O", "parameter": "viability, T/C", "test result": "51.4%"}
{"compound": "CC1(C)CCC(Nc2ncc(C(F)(F)F)c(-c3c[nH]c4c(P(C)(C)=O)c(C#N)ccc34)n2)CN1 (stereo not drawn) + CC(Nc1ccc2c(c1)OCCn1cc(N3C(=O)OCC3C(F)F)nc1-2)C(N)=O", "parameter": "viability, T/C", "test result": "34.6%"}
{"compound": "CCCS(=O)(=O)Nc1ccc(F)c(C(=O)c2c[nH]c3ncc(-c4ccc(Cl)cc4)cc23)c1F + COc1c(OCCCN2CCOCC2)ccc2c3n(c(=NC(=O)c4cnc(N)nc4)nc12)CCN3", "parameter": "viability, T/C", "test result": "24.9%"}

---

Each entry below carries its recorded viability, T/C.
- System: MDA-MB-231 multicell spheroids, viability
- procedure text: Anticancer human tumor MDA-MB-231 cell line growth inhibition [PI3K];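 also: spheroids exposed to agents for seven days before reading; percent of vehicle control luminescence with DMSO treated spheroids as 100%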
- settings: second compound 0.1 µM; first compound 0.1 µM; stronger effect = lower value
parameter: viability, T/C (%)

{"compound": "CC(=O)c1c(C)c2cnc(Nc3ccc(N4CCNCC4)cn3)nc2n(C2CCCC2)c1=O + Cc1nc(NC(=O)N2CCCC2C(N)=O)sc1-c1ccnc(C(C)(C)C(F)(F)F)c1", "test result": 37.8}
{"compound": "CC(Cn1ccc(-c2ccc(C#N)c(Cl)c2)n1)NC(=O)c1cc(C(C)O)[nH]n1 (configuration not stated) + COc1c(OCCCN2CCOCC2)ccc2c3n(c(=NC(=O)c4cnc(N)nc4)nc12)CCN3", "test result": 47.1}
{"compound": "Cn1nccc1Nc1nccc(-c2ccn(C(CO)c3ccc(Cl)c(F)c3)c(=O)c2)n1 (configuration not stated) + Cc1nc(NC(=O)N2CCCC2C(N)=O)sc1-c1ccnc(C(C)(C)C(F)(F)F)c1", "test result": 58.1}
{"compound": "CCCS(=O)(=O)Nc1ccc(F)c(C(=O)c2c[nH]c3ncc(-c4ccc(Cl)cc4)cc23)c1F + COc1c(OCCCN2CCOCC2)ccc2c3n(c(=NC(=O)c4cnc(N)nc4)nc12)CCN3", "test result": 49.8}
{"compound": "Cn1ncc(Cl)c1-c1cc(C(=O)NC(CN)Cc2cccc(F)c2)sc1Cl (configuration not stated) + CC(Nc1ccc2c(c1)OCCn1cc(N3C(=O)OCC3C(F)F)nc1-2)C(N)=O", "test result": 68.8}
{"compound": "CC(=O)c1c(C)c2cnc(Nc3ccc(N4CCNCC4)cn3)nc2n(C2CCCC2)c1=O + COc1c(OCCCN2CCOCC2)ccc2c3n(c(=NC(=O)c4cnc(N)nc4)nc12)CCN3", "test result": 21.1}
{"compound": "Cn1ncc(Cl)c1-c1cc(C(=O)NC(CN)Cc2cccc(F)c2)sc1Cl (configuration not stated) + COc1c(OCCCN2CCOCC2)ccc2c3n(c(=NC(=O)c4cnc(N)nc4)nc12)CCN3", "test result": 47.5}
{"compound": "CC1(C)CCC(Nc2ncc(C(F)(F)F)c(-c3c[nH]c4c(P(C)(C)=O)c(C#N)ccc34)n2)CN1 (configuration not stated) + CC(Nc1ccc2c(c1)OCCn1cc(N3C(=O)OCC3C(F)F)nc1-2)C(N)=O", "test result": 39.6}
{"compound": "CC(=O)c1c(C)c2cnc(Nc3ccc(N4CCNCC4)cn3)nc2n(C2CCCC2)c1=O + CC(Nc1ncnc2nc[nH]c12)c1cc2cccc(Cl)c2c(=O)n1-c1ccccc1", "test result": 46.5}
{"compound": "CCCS(=O)(=O)Nc1ccc(F)c(C(=O)c2c[nH]c3ncc(-c4ccc(Cl)cc4)cc23)c1F + CC(Nc1ncnc2nc[nH]c12)c1cc2cccc(Cl)c2c(=O)n1-c1ccccc1", "test result": 108}
{"compound": "CNC(=O)c1ccc(N2C(=S)N(c3ccc(C#N)c(C(F)(F)F)c3)C(=O)C2(C)C)cc1F + COc1c(OCCCN2CCOCC2)ccc2c3n(c(=NC(=O)c4cnc(N)nc4)nc12)CCN3", "test result": 46.2}
{"compound": "Cn1ncnc1[C@H]1c2n[nH]c(=O)c3cc(F)cc(c23)N[C@@H]1c1ccc(F)cc1 + CC(Nc1ccc2c(c1)OCCn1cc(N3C(=O)OCC3C(F)F)nc1-2)C(N)=O", "test result": 50.1}
{"compound": "Cn1ncc(Cl)c1-c1cc(C(=O)NC(CN)Cc2cccc(F)c2)sc1Cl (configuration not stated) + CC(Nc1ncnc2nc[nH]c12)c1cc2cccc(Cl)c2c(=O)n1-c1ccccc1", "test result": 97.7}
{"compound": "CC(C)NCC(C(=O)N1CCN(c2ncnc3c2C(C)CC3O)CC1)c1ccc(Cl)cc1 (configuration not stated) + CC(Nc1ccc2c(c1)OCCn1cc(N3C(=O)OCC3C(F)F)nc1-2)C(N)=O", "test result": 72.8}
{"compound": "CC1(C)CCC(Nc2ncc(C(F)(F)F)c(-c3c[nH]c4c(P(C)(C)=O)c(C#N)ccc34)n2)CN1 (configuration not stated) + Cc1nc(NC(=O)N2CCCC2C(N)=O)sc1-c1ccnc(C(C)(C)C(F)(F)F)c1", "test result": 44.1}
{"compound": "Cn1ncc(Cl)c1-c1cc(C(=O)NC(CN)Cc2cccc(F)c2)sc1Cl (configuration not stated) + Cc1nc(NC(=O)N2CCCC2C(N)=O)sc1-c1ccnc(C(C)(C)C(F)(F)F)c1", "test result": 83.3}
{"compound": "CC1(C)CCC(CN2CCN(c3ccc(C(=O)NS(=O)(=O)c4ccc(NCC5CCOCC5)c([N+](=O)[O-])c4)c(Oc4cnc5[nH]ccc5c4)c3)CC2)=C(c2ccc(Cl)cc2)C1 + CC(Nc1ccc2c(c1)OCCn1cc(N3C(=O)OCC3C(F)F)nc1-2)C(N)=O", "test result": 69.1}
{"compound": "Cn1nccc1Nc1nccc(-c2ccn(C(CO)c3ccc(Cl)c(F)c3)c(=O)c2)n1 (configuration not stated) + CC(Nc1ccc2c(c1)OCCn1cc(N3C(=O)OCC3C(F)F)nc1-2)C(N)=O", "test result": 46.6}
{"compound": "CCN1CCN(Cc2ccc(Nc3ncc(F)c(-c4cc(F)c5nc(C)n(C(C)C)c5c4)n3)nc2)CC1 + CC(Nc1ncnc2nc[nH]c12)c1cc2cccc(Cl)c2c(=O)n1-c1ccccc1", "test result": 59.1}
{"compound": "Cn1ncnc1[C@H]1c2n[nH]c(=O)c3cc(F)cc(c23)N[C@@H]1c1ccc(F)cc1 + CC(Nc1ncnc2nc[nH]c12)c1cc2cccc(Cl)c2c(=O)n1-c1ccccc1", "test result": 79.2}
{"compound": "CC1(C)CCC(Nc2ncc(C(F)(F)F)c(-c3c[nH]c4c(P(C)(C)=O)c(C#N)ccc34)n2)CN1 (configuration not stated) + CC(Nc1ncnc2nc[nH]c12)c1cc2cccc(Cl)c2c(=O)n1-c1ccccc1", "test result": 38.5}
{"compound": "CCN1CCN(Cc2ccc(Nc3ncc(F)c(-c4cc(F)c5nc(C)n(C(C)C)c5c4)n3)nc2)CC1 + Cc1nc(NC(=O)N2CCCC2C(N)=O)sc1-c1ccnc(C(C)(C)C(F)(F)F)c1", "test result": 50.5}

---

- System: MDA-MB-231 multicell spheroids, viability
- procedure text: Anticancer human tumor MDA-MB-231 cell line growth inhibition [PI3K]; active = viability on the fitted dose curve at most 10% of control; inactive = the rest;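 also: spheroids exposed to agents for seven days before reading; percent of vehicle control luminescence with DMSO treated spheroids as 100%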
- settings: second compound 0.1 µM; first compound 10 µM
Classes used: active, inactive

{"compound": "C[C@@H](NC(=O)c1ncnc(N)c1Cl)c1ncc(C(=O)Nc2cc(C(F)(F)F)c(Cl)cn2)s1 + CC(Nc1ncnc2nc[nH]c12)c1cc2cccc(Cl)c2c(=O)n1-c1ccccc1", "cat": "inactive"}
{"compound": "CNC(=O)c1ccc(N2C(=S)N(c3ccc(C#N)c(C(F)(F)F)c3)C(=O)C2(C)C)cc1F + CC(Nc1ccc2c(c1)OCCn1cc(N3C(=O)OCC3C(F)F)nc1-2)C(N)=O", "cat": "inactive"}
{"compound": "Cn1ncc(Cl)c1-c1cc(C(=O)NC(CN)Cc2cccc(F)c2)sc1Cl (stereo not given) + CC(Nc1ncnc2nc[nH]c12)c1cc2cccc(Cl)c2c(=O)n1-c1ccccc1", "cat": "inactive"}
{"compound": "CC(C)NCC(C(=O)N1CCN(c2ncnc3c2C(C)CC3O)CC1)c1ccc(Cl)cc1 (stereo not given) + Cc1nc(NC(=O)N2CCCC2C(N)=O)sc1-c1ccnc(C(C)(C)C(F)(F)F)c1", "cat": "inactive"}
{"compound": "CC(C)NCC(C(=O)N1CCN(c2ncnc3c2C(C)CC3O)CC1)c1ccc(Cl)cc1 (stereo not given) + COc1c(OCCCN2CCOCC2)ccc2c3n(c(=NC(=O)c4cnc(N)nc4)nc12)CCN3", "cat": "inactive"}
{"compound": "C=CC(=O)N1CCN(c2nc(=O)n(-c3c(C)ccnc3C(C)C)c3nc(-c4c(O)cccc4F)c(F)cc23)C(C)C1 (stereo not given) + COc1c(OCCCN2CCOCC2)ccc2c3n(c(=NC(=O)c4cnc(N)nc4)nc12)CCN3", "cat": "inactive"}
{"compound": "CC1(C)CCC(Nc2ncc(C(F)(F)F)c(-c3c[nH]c4c(P(C)(C)=O)c(C#N)ccc34)n2)CN1 (stereo not given) + CC(Nc1ncnc2nc[nH]c12)c1cc2cccc(Cl)c2c(=O)n1-c1ccccc1", "cat": "active"}
{"compound": "Cn1nccc1Nc1nccc(-c2ccn(C(CO)c3ccc(Cl)c(F)c3)c(=O)c2)n1 (stereo not given) + COc1c(OCCCN2CCOCC2)ccc2c3n(c(=NC(=O)c4cnc(N)nc4)nc12)CCN3", "cat": "inactive"}
{"compound": "CC1(C)CCC(CN2CCN(c3ccc(C(=O)NS(=O)(=O)c4ccc(NCC5CCOCC5)c([N+](=O)[O-])c4)c(Oc4cnc5[nH]ccc5c4)c3)CC2)=C(c2ccc(Cl)cc2)C1 + COc1c(OCCCN2CCOCC2)ccc2c3n(c(=NC(=O)c4cnc(N)nc4)nc12)CCN3", "cat": "inactive"}
{"compound": "CC1(C)CCC(CN2CCN(c3ccc(C(=O)NS(=O)(=O)c4ccc(NCC5CCOCC5)c([N+](=O)[O-])c4)c(Oc4cnc5[nH]ccc5c4)c3)CC2)=C(c2ccc(Cl)cc2)C1 + CC(Nc1ccc2c(c1)OCCn1cc(N3C(=O)OCC3C(F)F)nc1-2)C(N)=O", "cat": "inactive"}
